Sourced from patent US20230340012A1

Please go through the items and note down their IC50 of ovary (OVCAR3).
System: OVCAR3
Assay Remarks: MTT assay, ovary (OVCAR3)
Assay type: cell-based, human
Condition Context: MTT
Lab note: write values as number then unit, every time.

Recall the recorded IC50 of ovary (OVCAR3) for CC=C(C)C(=O)OCC1(C)C(O)CCC2(C)C1CCC1(C)C2CC=C2C3CC(C)(C)C(OC(=O)C(C)=CC)C(O)C3(CO)C(O)CC21C (stereo not drawn) with OVCAR3 and state it. 6.5 µg/mL

Now try CC=C(C)C(=O)OCC1(C)C(O)CCC2(C)C1CCC1(C)C2CC=C2C3CC(C)(C)C(O)C(OC(=O)C(C)=CC)C3(CO)C(O)CC21C (stereo not drawn) . 23 µg/mL

Could you do the same for CC=C(C)C(=O)OCC1(C)C(O)CCC2(C)C1CCC1(C)C2CC=C2C3CC(C)(C)C(O)C(O)C3(CO)C(O)CC21C (stereo not drawn) , please? 18 µg/mL

---

System: cancer cells
Assay Remarks: MTT cytotoxic assay of esterification products (Cytotoxicity activity)
Format: cell-based, human
Condition Context: E4A esterified with Propionyl chloride (Ppi = Propionyl), compounds isolated with HPLC
Measured Metric: Cytotoxicity activity

- CC1(C)CC2C3=CCC4C5(C)CCC(O)C(C)(CO)C5CCC4(C)C3(C)CC(O)C2(COC(=O)c2ccccc2)C(OC(=O)c2ccccc2)C1OC(=O)c1ccccc1 (stereo not shown): moderate
- CC1(C)CC2C3=CCC4C5(C)CCC(OC(=O)c6ccccc6)C(C)(CO)C5CCC4(C)C3(C)CC(O)C2(CO)C(OC(=O)c2ccccc2)C1OC(=O)c1ccccc1 (stereo not shown): moderate
- CC1(C)CC2C3=CCC4C5(C)CCC(O)C(C)(CO)C5CCC4(C)C3(C)CC(OC(=O)c3ccccc3)C2(COC(=O)c2ccccc2)C(O)C1O (stereo not shown): moderate
- CC1(C)CC2C3=CCC4C5(C)CCC(OC(=O)c6ccccc6)C(C)(COC(=O)c6ccccc6)C5CCC4(C)C3(C)CC(OC(=O)c3ccccc3)C2(COC(=O)c2ccccc2)C(OC(=O)c2ccccc2)C1OC(=O)c1ccccc1 (stereo not shown): none

Continue with the molecule presented below.
// Cytotoxicity activity lookup, key: CC1(C)CC2C3=CCC4C5(C)CCC(O)C(C)(COC(=O)c6ccccc6)C5CCC4(C)C3(C)CC(OC(=O)c3ccccc3)C2(COC(=O)c2ccccc2)C(OC(=O)c2ccccc2)C1OC(=O)c1ccccc1 (stereo not shown) weak

---

Tested on: Erythrocytes (RBC)
Assay Remarks: The haemolytic assay
Condition Context: in words, no concentration given
Measured Metric: hemolytic activity

* CC1(C)CC2C3=CCC4C5(C)CCC(O)C(C)(C)C5CCC4(C)C3(C)CC(O)C2(CO)C(O)C1O (stereo not shown) | no hemolytic activity
* CC1(C)CC2C3=CCC4C5(C)CCC(O)C(C)(CO)C5CCC4(C)C3(C)C(O)C(O)C2(CO)C(O)C1O (stereo not shown) | no hemolytic activity
* CC1(C)CC2C3=CCC4[C@@]5(C)CC[C@H](O[C@@H]6OC(C(=O)O)[C@@H](O)[C@@H](O[C@@H]7O[C@@H](CO)[C@@H](O)C7O)C6O[C@@H]6OC(CO)[C@H](O)[C@@H](O)C6O)C(C)(C)C5CC[C@@]4(C)[C@]3(C)[C@@H](O)[C@@H](O)[C@@]2(CO)[C@@H](O)[C@@H]1O (stereo partly shown) | no hemolytic activity

---

Could you please report measured IC50 of brain (T98G) for the items listed next?
Tested on: T98G
Assay Remarks: MTT assay, brain (T98G)
Type: cell-based, human
Numbers only here, please. The scale is µg/mL.

Given the entry CC=C(C)C(=O)OCC1(C)C(O)CCC2(C)C1CCC1(C)C2CC=C2C3CC(C)(C)C(OC(=O)C(C)=CC)C(O)C3(COC(=O)C(C)=CC)C(O)CC21C (stereo not drawn) , what IC50 of brain (T98G) was observed with T98G? 14

Next record, please: CC=C(C)C(=O)OCC1(C)C(O)CCC2(C)C1CCC1(C)C2CC=C2C3CC(C)(C)C(O)C(OC(=O)C(C)=CC)C3(CO)C(O)CC21C (stereo not drawn) 29

Same lookup for CC=C(C)C(=O)OCC1(C)C(OC(=O)C(C)=CC)CCC2(C)C1CCC1(C)C2CC=C2C3CC(C)(C)C(OC(=O)C(C)=CC)C(O)C3(CO)C(O)CC21C (stereo not drawn) , please. 22

Next compound: CC=C(C)C(=O)OCC1(C)C(O)CCC2(C)C1CCC1(C)C2CC=C2C3CC(C)(C)C(O)C(O)C3(CO)C(O)CC21C (stereo not drawn) 19

And CC=C(C)C(=O)OCC1(C)C(O)CCC2(C)C1CCC1(C)C2CC=C2C3CC(C)(C)C(O)C(OC(=O)C(C)=CC)C3(COC(=O)C(C)=CC)C(O)CC21C (stereo not drawn) ? 26

Then this compound: CC=C(C)C(=O)OCC1(C)C(O)CCC2(C)C1CCC1(C)C2CC=C2C3CC(C)(C)C(OC(=O)C(C)=CC)C(O)C3(CO)C(O)CC21C (stereo not drawn) 9

---

System: cancer cells
Assay Remarks: MTT cytotoxic assay of esterification products (Cytotoxicity activity)
Type: cell-based, human
Condition Context: esterification products of core compound E4A with Butyryl chloride (But = Butyryl)
Measured Metric: Cytotoxicity activity

A selection of reference data follows.
* CC1(C)CC2C3=CCC4C5(C)CCC(OC(=O)c6ccccc6)C(C)(CO)C5CCC4(C)C3(C)CC(O)C2(CO)C(OC(=O)c2ccccc2)C1OC(=O)c1ccccc1 (centres unmarked) [Compound K23] | moderate
* CC1(C)CC2C3=CCC4C5(C)CCC(OC(=O)c6ccccc6)C(C)(CO)C5CCC4(C)C3(C)CC(O)C2(COC(=O)c2ccccc2)C(O)C1O (centres unmarked) [Compound K27] | moderate
* CC1(C)CC2C3=CCC4C5(C)CCC(OC(=O)c6ccccc6)C(C)(COC(=O)c6ccccc6)C5CCC4(C)C3(C)CC(OC(=O)c3ccccc3)C2(COC(=O)c2ccccc2)C(OC(=O)c2ccccc2)C1O (centres unmarked) [Compound K18] | weak
* CC1(C)CC2C3=CCC4C5(C)CCC(O)C(C)(COC(=O)c6ccccc6)C5CCC4(C)C3(C)CC(OC(=O)c3ccccc3)C2(COC(=O)c2ccccc2)C(O)C1OC(=O)c1ccccc1 (centres unmarked) [Compound K13] | weak

Please turn your attention to the following entry.
Can you share its Cytotoxicity activity? I mean this compound: CC1(C)CC2C3=CCC4C5(C)CCC(OC(=O)c6ccccc6)C(C)(COC(=O)c6ccccc6)C5CCC4(C)C3(C)CC(OC(=O)c3ccccc3)C2(COC(=O)c2ccccc2)C(O)C1OC(=O)c1ccccc1 (centres unmarked) [Compound K17] weak

---

System: cancer cells
Assay Remarks: MTT cytotoxic assay of esterification products (Cytotoxicity activity)
Type: cell-based, human
Condition Context: MTT cytotoxic assay, isolated esterification products of E4A
Measured Metric: Cytotoxicity activity

* C=CCCC(=O)OCC1(C)C(OC(=O)CCC=C)CCC2(C)C1CCC1(C)C2CC=C2C3CC(C)(C)C(O)C(OC(=O)CCC=C)C3(COC(=O)CCC=C)C(OC(=O)CCC=C)CC21C (stereo not drawn) [Compound C18] | weak
* CCC(CC)C(=O)OCC1(C)C(O)CCC2(C)C1CCC1(C)C2CC=C2C3CC(C)(C)C(OC(=O)C(CC)CC)C(OC(=O)C(CC)CC)C3(COC(=O)C(CC)CC)C(OC(=O)C(CC)CC)CC21C (stereo not drawn) [Compound E16] | weak

---

System: cancer cells
Assay Remarks: MTT cytotoxic assay of esterification products (Cytotoxicity activity)
Format: cell-based, human
Condition Context: E4A esterified with Acetyl chloride (Acy = Acetyl), compounds isolated with HPLC
Measured Metric: Cytotoxicity activity

* CC(=O)OCC1(C)C(O)CCC2(C)C1CCC1(C)C2CC=C2C3CC(C)(C)C(O)C(OC(C)=O)C3(CO)C(O)CC21C (centres unmarked) [Compound H30] | moderate
* CC(=O)OCC12C(O)CC3(C)C(=CCC4C5(C)CCC(OC(C)=O)C(C)(CO)C5CCC43C)C1CC(C)(C)C(O)C2O (centres unmarked) [Compound H27] | moderate
* CC(=O)OCC1(C)C(O)CCC2(C)C1CCC1(C)C2CC=C2C3CC(C)(C)C(OC(C)=O)C(O)C3(CO)C(O)CC21C (centres unmarked) [Compound H29] | moderate
* CC(=O)OCC1(C)C(OC(C)=O)CCC2(C)C1CCC1(C)C2CC=C2C3CC(C)(C)C(O)C(O)C3(CO)C(O)CC21C (centres unmarked) [Compound H31] | moderate
* CC(=O)OCC1(C)C(OC(C)=O)CCC2(C)C1CCC1(C)C2CC=C2C3CC(C)(C)C(O)C(OC(C)=O)C3(COC(C)=O)C(O)CC21C (centres unmarked) [Compound H14] | weak
* CC(=O)OCC1(C)C(O)CCC2(C)C1CCC1(C)C2CC=C2C3CC(C)(C)C(O)C(O)C3(CO)C(OC(C)=O)CC21C (centres unmarked) [Compound H32] | moderate
* CC(=O)OCC1(C)C(OC(C)=O)CCC2(C)C1CCC1(C)C2CC=C2C3CC(C)(C)C(OC(C)=O)C(O)C3(COC(C)=O)C(OC(C)=O)CC21C (centres unmarked) [Compound H17] | weak
* CC(=O)OCC1(C)C(O)CCC2(C)C1CCC1(C)C2CC=C2C3CC(C)(C)C(OC(C)=O)C(O)C3(COC(C)=O)C(OC(C)=O)CC21C (centres unmarked) [Compound H13] | weak

Here is another compound to look at.
Given CC(=O)OCC1(C)C(OC(C)=O)CCC2(C)C1CCC1(C)C2CC=C2C3CC(C)(C)C(OC(C)=O)C(OC(C)=O)C3(COC(C)=O)C(OC(C)=O)CC21C (centres unmarked) [Compound H19] , state its recorded Cytotoxicity activity. none
